Biological target: Amine oxidase [flavin-containing] A (Homo sapiens, UniProt P21397)
Sequence (P21397 whole entry): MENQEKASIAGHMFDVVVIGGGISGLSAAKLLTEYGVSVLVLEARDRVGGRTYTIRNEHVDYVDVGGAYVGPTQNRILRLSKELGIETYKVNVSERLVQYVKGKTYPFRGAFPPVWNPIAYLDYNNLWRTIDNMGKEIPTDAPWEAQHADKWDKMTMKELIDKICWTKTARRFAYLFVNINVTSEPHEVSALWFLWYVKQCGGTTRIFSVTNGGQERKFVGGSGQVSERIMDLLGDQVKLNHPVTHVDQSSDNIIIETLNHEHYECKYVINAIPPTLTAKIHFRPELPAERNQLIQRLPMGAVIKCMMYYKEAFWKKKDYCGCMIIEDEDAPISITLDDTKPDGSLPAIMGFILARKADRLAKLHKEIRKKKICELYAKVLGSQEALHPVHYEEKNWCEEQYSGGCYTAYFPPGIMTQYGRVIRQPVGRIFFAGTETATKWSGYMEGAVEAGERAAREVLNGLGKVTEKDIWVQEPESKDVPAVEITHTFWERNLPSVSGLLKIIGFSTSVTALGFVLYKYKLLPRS
Assay: Inhibition of recombinant human MAO-A using kynuramine as substrate assessed as 4-hydroxyquinoline production after 30 mins by fluorescence spectrophotometry analysis
pIC50: −log10 of the molar value.
property: pIC50

Observe how each entry below is paired with its result.
In: Given "O=C1CCCc2cc(OCc3cccc(Br)c3)ccc21" , state its recorded pIC50.
Out: 6.67

In: Given "O=C1CCCc2cc(OCc3ccccc3)ccc21" , state its recorded pIC50.
Out: 6.10

In: Given "O=C1CCCc2cc(OCc3ccc(I)cc3)ccc21" , state its recorded pIC50.
Out: 5.65

[P] N#Cc1cccc(COc2ccc3c(c2)CCCC3=O)c1
[Q] O=C1CCCc2cc(OCc3cccc(F)c3)ccc21
[R] O=C1CCCc2ccccc21
In: Place the items in sequence of falling pIC50. Please, when replying, give the labels in the order that was requested.
Out: P, Q, R

----------
Target: UniProtKB P21397
Assay: Competitive inhibition of recombinant human MAO-A using kynuramine as substrate by Lineweaver-Burk plot analysis
property: Ki (nM)
I only need the number, in nM, no unit after it.

In: Given "N#Cc1cccc(COc2ccc3c(c2)CCCC3=O)c1" , state its recorded Ki.
Out: 25

----------
Target: Amine oxidase [flavin-containing] B (Homo sapiens, UniProt P27338)
Test: Competitive inhibition of recombinant human MAO-B using kynuramine as substrate by Lineweaver-Burk plot analysis
property: Ki (nM)
I only need the number, in nM, no unit after it.

In: Given "O=C1CCCc2cc(OCc3cccc(I)c3)ccc21" , state its recorded Ki.
Out: 7.1

----------
Biological target: Amine oxidase [flavin-containing] B (Homo sapiens)
Sequence (P27338 whole entry): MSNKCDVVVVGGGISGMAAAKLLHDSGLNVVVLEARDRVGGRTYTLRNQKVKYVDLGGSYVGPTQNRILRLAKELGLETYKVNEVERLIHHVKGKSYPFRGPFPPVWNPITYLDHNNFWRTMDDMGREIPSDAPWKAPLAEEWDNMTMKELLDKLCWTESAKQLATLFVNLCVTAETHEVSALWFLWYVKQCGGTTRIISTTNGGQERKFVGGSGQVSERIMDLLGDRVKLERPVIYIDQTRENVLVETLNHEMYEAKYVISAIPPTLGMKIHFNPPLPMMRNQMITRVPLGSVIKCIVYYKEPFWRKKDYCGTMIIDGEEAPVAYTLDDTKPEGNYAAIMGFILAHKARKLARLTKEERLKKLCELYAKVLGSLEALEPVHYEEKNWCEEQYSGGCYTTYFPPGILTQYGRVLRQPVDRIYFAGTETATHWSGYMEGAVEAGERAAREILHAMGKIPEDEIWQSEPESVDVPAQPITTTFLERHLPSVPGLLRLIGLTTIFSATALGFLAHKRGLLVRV
Experiment: Inhibition of recombinant human MAO-B using kynuramine as substrate assessed as 4-hydroxyquinoline production after 30 mins by fluorescence spectrophotometry analysis
pIC50: −log10 of the molar value.
property: pIC50

Observe how each entry below is paired with its result.
In: Given "O=C1CCCc2cc(OCc3ccc(C(F)(F)F)cc3)ccc21" , state its recorded pIC50.
Out: 8.22

In: Given "O=C1CCCc2cc(OCc3cccc(Cl)c3)ccc21" , state its recorded pIC50.
Out: 7.82

In: Given "O=C1CCCc2cc(OCc3ccccc3)ccc21" , state its recorded pIC50.
Out: 7.20

In: Given "O=C1CCCc2cc(OCc3ccc(Br)cc3)ccc21" , state its recorded pIC50.
Out: 8.05

In: Given "O=C1CCCc2cc(OCc3cccc(Br)c3)ccc21" , state its recorded pIC50.
Out: 8.05

[1] Cc1ccc(COc2ccc3c(c2)CCCC3=O)cc1
[2] O=C1CCCc2cc(OCCCc3ccccc3)ccc21
[3] N#Cc1cccc(COc2ccc3c(c2)CCCC3=O)c1
[4] O=C1CCCc2ccccc21
[5] O=C1CCCc2cc(OCc3ccc(I)cc3)ccc21
In: Hey, quick one: sort these by pIC50, low to high? Please, when replying, give the labels in the order that was requested.
Out: 4, 3, 2, 1, 5
